- Method summary: AUC (0 to 24 hrs) in rat at 1 mg/kg, po
- Type: ADME, organism-based
- Parameters: dose 1 mg/kg, time < 24 hr, route oral
- Test context: in vivo

Compound smiles: C[C@H]1[C@H](F)C[C@@H](C(=O)NCc2cc(-c3cnc(C(F)(F)F)nc3)ncc2F)N1S(=O)(=O)c1ccc(F)cc1
Units symbol: µM·h
AUC(0-t) at 24 h: 0.56

====

- Method summary: AUC (0 to 24 hrs) in rat at 30 mg/kg, po
- Assay type: ADME, organism-based
- Parameters: dose 30 mg/kg, time < 24 hr, route oral
- Test context: in vivo

Compound smiles: C[C@H]1[C@H](F)C[C@@H](C(=O)NCc2cc(-c3cnc(C(F)(F)F)nc3)ncc2F)N1S(=O)(=O)c1ccc(F)cc1
AUC(0-t) at 24 h / µM·h: 32.8

Sourced from ChEMBL document CHEMBL4043298
